System: OVCAR-4 ovarian
Experiment: NCI tumour cell line growth inhibition, 48 h
PARAMETER: TGI

{"MOLECULE": "COn1cc(C=O)c2ccccc21", "PARAMETER": "TGI", "VALUE": "> 100 µM"}
{"MOLECULE": "O=C1c2ccn(CCCCNC(CO)(CO)CO)c2C(=O)c2c1c(O)c1ccccc1c2O", "PARAMETER": "TGI", "VALUE": "> 22.2 µM"}
{"MOLECULE": "CCOC(=O)c1[nH]c(COC(C)=O)c(CCCOC(C)=O)c1CCCOC(C)=O", "PARAMETER": "TGI", "VALUE": "> 100 µM"}
{"MOLECULE": "NC1CCCC[C@H]1N.N[C@@H]1CCCC[C@@H]1N.O=C(P(=O)([O-])[O-])P(=O)([O-])[O-].[Pt+4].[Pt+4]", "PARAMETER": "TGI", "VALUE": "> 100 µM"}
{"MOLECULE": "CCN(CC)CCOc1ccc(/C(=C(\\C)c2ccc(F)c(OC)c2)c2ccc(Cl)cc2)cc1", "PARAMETER": "TGI", "VALUE": "4.45 µM"}
{"MOLECULE": "Cc1[nH][nH]c(=O)c1C=Nc1ccc(-c2nc3ccccc3[nH]2)cc1", "PARAMETER": "TGI", "VALUE": "76.5 µM"}
{"MOLECULE": "Nc1ccncc1/C=C1/C(=O)Nc2ccccc21", "PARAMETER": "TGI", "VALUE": "> 100 µM"}
{"MOLECULE": "O=C(Nc1cccc(Cl)c1)c1cc2ccccc2cc1O", "PARAMETER": "TGI", "VALUE": "> 100 µM"}
{"MOLECULE": "COC(COC(=O)N1CCN(C=O)CC1)C1=C(N2CC2)C(=O)C(C)=C(N2CC2)C1=O (stereo not drawn)", "PARAMETER": "TGI", "VALUE": "2.13 µM"}
{"MOLECULE": "O=C(/C=C/c1ccccc1)/C=C/c1ccccc1", "PARAMETER": "TGI", "VALUE": "53.2 µM"}
{"MOLECULE": "COc1ccc(C[N+]23C(CC[C@H]2c2ccccc2)CC[C@H]3c2ccccc2)cc1 (stereo partly drawn)", "PARAMETER": "TGI", "VALUE": "84.1 µM"}
{"MOLECULE": "CCN(CC)CCn1nc(N)c2nc3cc(Cl)ccc3nc21", "PARAMETER": "TGI", "VALUE": "> 100 µM"}
{"MOLECULE": "CCOC(=O)C1N(S(=O)(=O)c2ccc(C)cc2)CCC12C(c1ccc(OC)cc1)NC1CCCCC12 (stereo not drawn)", "PARAMETER": "TGI", "VALUE": "> 100 µM"}
{"MOLECULE": "COC(=O)/C=C/C1C(C(=O)OC)C2(C(=O)OC)CCC1(C(=O)OC)N2 (stereo not drawn)", "PARAMETER": "TGI", "VALUE": "> 100 µM"}
{"MOLECULE": "O=C(CN1CCCCC1)N1CCc2c([nH]c3ccccc23)C1c1cccnc1 (stereo not drawn)", "PARAMETER": "TGI", "VALUE": "> 100 µM"}
{"MOLECULE": "COc1cc2c(cc1OC)C(O)[C@H](Br)C(C)(C)O2 (stereo partly drawn)", "PARAMETER": "TGI", "VALUE": "> 100 µM"}
{"MOLECULE": "Cc1cc(C)cc(C(=N)c2ccccc2Cc2cccc3ccccc23)c1", "PARAMETER": "TGI", "VALUE": "33.7 µM"}
{"MOLECULE": "CN=NN(C)C(=O)NC", "PARAMETER": "TGI", "VALUE": "> 100 µM"}
{"MOLECULE": "CN1CCOC1(C)CO (stereo not drawn)", "PARAMETER": "TGI", "VALUE": "> 100 µM"}
{"MOLECULE": "CCOC(=O)c1nc2c(Cl)c3ncccc3cc2[nH]c1=O", "PARAMETER": "TGI", "VALUE": "> 100 µM"}
{"MOLECULE": "CSC1(CC(=O)N(C)C)C(=O)Nc2ccccc21 (stereo not drawn)", "PARAMETER": "TGI", "VALUE": "> 100 µM"}
{"MOLECULE": "CC(=O)OCC1OC([S-])C(OC(C)=O)C(OC(C)=O)C1OC(C)=O.CC[PH+](CC)CC.CC[PH+](CC)CC.[Au].[Au] (stereo not drawn)", "PARAMETER": "TGI", "VALUE": "1.88 µM"}
{"MOLECULE": "CC1=C(C(N)=O)C(c2ccncc2)C(C#N)=C2SCC(=O)N12 (stereo not drawn)", "PARAMETER": "TGI", "VALUE": "> 100 µM"}
